We begin with a simple list: items and their reported aptazyme ON/OFF ratio.
B1: Pistol ribozyme (parent)
chain: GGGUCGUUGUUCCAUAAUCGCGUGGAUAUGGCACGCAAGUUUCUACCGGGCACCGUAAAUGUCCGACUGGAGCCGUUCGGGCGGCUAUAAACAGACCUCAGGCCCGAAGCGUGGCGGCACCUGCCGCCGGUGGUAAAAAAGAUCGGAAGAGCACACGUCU

# Variants of: B1
# protocolDescription: aptazyme ON/OFF ratio, guanine; higher = stronger switching; co-transcriptional cleavage with and without guanine
No unit in the answer, please; the number alone is enough.

Some solved entries appear below for comparison.
In [3]: df
Out[3]:
                        change       reportedproperty  observedmeasurement
0   U7G U8A G9C U10G U11C C13G  aptazyme ON/OFF ratio                 1.06
1  U7C G9U U10G U11C C12U C13G  aptazyme ON/OFF ratio                 1.05
2   U7C U8G G9C U10A U11A C13A  aptazyme ON/OFF ratio                 1.15

Exercise: Any idea what its aptazyme ON/OFF ratio is? The variant is U8G G9U U11A C12G
Key: 1.25

Exercise: Any idea what its aptazyme ON/OFF ratio is? The variant is G9A U10A U11A C12G C13A
Key: 1.26

Exercise: Any idea what its aptazyme ON/OFF ratio is? The variant is U7A U8C G9U U11G C12U C13U
Key: 1.28
